study-target: prostaglandin-endoperoxide synthase (PGHS) (Ovis aries)
Construct: isolated from sheep seminal gland; purchased Cayman Chemical 60100; host or cells: sheep seminal gland
Sequence (P05979 25-600): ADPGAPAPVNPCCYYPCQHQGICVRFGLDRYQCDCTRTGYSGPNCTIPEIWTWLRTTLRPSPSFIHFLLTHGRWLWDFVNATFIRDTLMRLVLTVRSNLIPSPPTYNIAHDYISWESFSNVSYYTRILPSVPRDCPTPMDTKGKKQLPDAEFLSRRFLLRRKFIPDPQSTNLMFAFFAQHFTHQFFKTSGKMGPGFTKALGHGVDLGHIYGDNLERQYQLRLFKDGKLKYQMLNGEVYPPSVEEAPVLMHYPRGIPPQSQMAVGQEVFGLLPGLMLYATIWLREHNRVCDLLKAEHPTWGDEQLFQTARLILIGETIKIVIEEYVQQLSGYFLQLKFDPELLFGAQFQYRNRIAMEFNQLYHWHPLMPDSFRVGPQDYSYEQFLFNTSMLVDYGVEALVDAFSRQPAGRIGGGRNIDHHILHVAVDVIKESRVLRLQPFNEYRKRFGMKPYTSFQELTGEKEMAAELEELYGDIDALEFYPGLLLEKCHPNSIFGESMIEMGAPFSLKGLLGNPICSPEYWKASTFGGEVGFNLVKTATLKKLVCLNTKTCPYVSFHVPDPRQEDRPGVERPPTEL
protocol-description: Measurement of the activating and/or stabilizing power at a given concentration (oxygen consumption, Clark electrode)
Format: biochemical, sheep
assay-context: 0.5 mM; 37° C.; initial rate; % relative to control
measured-attribute: activation at 500 µM (%)
Express it in %; write the number only.

Below, 2 compounds whose answers are already recorded.
{"columns": ["compound", "units", "assay-value"],
 "data": [
  ["COc1ccc2c(c1)c(CC(=O)O)c(C)n2C(=O)c1ccc(Cl)cc1 [Indomethacin]", "%", -100],
  ["Cc1nc(N2CCCCC2)cc(N)[n+]1[O-]", "%", 24]
]}

Challenge: State, in one line, measured activation at 500 µM of Nc1cc(N2CCCCC2)nc(N)n1 [2,4-diamino-6-piperidinopyrimidine]
Response given: -14

Challenge: State, in one line, measured activation at 500 µM of CCCNc1cc(N2CCCCC2)nc(N)[n+]1[O-]
Response given: 173

Challenge: State, in one line, measured activation at 500 µM of CCCNc1cc(N(C)C)nc(NCCC)[n+]1[O-]
Response given: 171

Challenge: State, in one line, measured activation at 500 µM of CCCCOc1cc(N)[n+]([O-])c(N)n1 [2,4-diamino-6-butyloxypyrimidine 3-oxide]
Response given: 13

Challenge: State, in one line, measured activation at 500 µM of CCCNc1cc(N(C)C)nc(N)[n+]1[O-]
Response given: 117

Challenge: State, in one line, measured activation at 500 µM of Nc1cc(N2CCCCC2)nc(N)[n+]1[O-]
Response given: 58
